# target-or-test-system: Luciferin 4-monooxygenase (Photinus pyralis)
# assay-notes: qHTS assay to identify small molecule inhibitors of firefly luciferase (AID 1224835); note: nearly all actives have a fitted effect of over 25% in size
# stated-conditions: purified P. pyralis luciferase, luminescence inhibition; series mostly up to 115 µM
Results filed as inconclusive are left out. Active and inactive are the calls of the source. Calls come from the whole dose curve; as a rule, active = well fitted inhibition curve with a large enough effect in the repeat runs; inconclusive = weak or mixed curves; inactive = flat fitted curve, though single readings scatter.
Write down the outcome that applies. Available outcomes: class 1 for active, class 0 for inactive

Field: example entries. Status: answers known.
{"compound": "O=Cc1ccc(C(=O)O)cc1", "group": "class 0"}
{"compound": "COc1cc(C(=O)NC2CCCNC2)cc(OC)c1OC (configuration not stated)", "group": "class 0"}
{"compound": "CCCCCCCCCCCC(C)=O", "group": "class 0"}
{"compound": "CC/C=C\\CCOC(=O)c1ccccc1", "group": "class 1"}
{"compound": "CC(=O)Oc1ccc(C(C)=O)cc1", "group": "class 0"}

[Q] Fill in: this test's call for COc1cc(OC)cc(OC)c1 is ___
[A] class 0

[Q] Please do the same for CC(C)C(=O)Nc1cccc(C2CN3CCSC3=N2)c1 (configuration not stated) as well.
[A] class 0

###

# target-or-test-system: Estrogen receptor (Homo sapiens)
# assay-notes: qHTS assay to identify small molecule antagonists of the estrogen receptor alpha (ER-alpha) signaling pathway (AID 743069); note: % is set by controls: 0 for no effect and ±100 for the full control effect
# stated-conditions: HEK293 ER-alpha-UAS-bla, beta-lactamase ratio, antagonist mode; series mostly up to 69.4 µM
Inconclusive results are not listed. Activity calls are given as the source filed them. The call rests on the fitted dose curve; in most records, active means well fitted curve in the direction sought with a large enough effect in the signal ratio in the repeat runs (not every such curve was filed as active); inconclusive means weak or mixed curves, or effect the other way; inactive means no such curve, though single readings can be large or run the other way; the % refers to the signal ratio.
assay-metric: activity, negative = inhibition

// worked examples, activity, negative = inhibition included
{"compound": "CC/C=C\\CCOC(=O)c1ccccc1", "target-or-test-system": "Estrogen receptor (Homo sapiens)", "assay-metric": "activity, negative = inhibition", "data-value": "inactive"}
{"compound": "O=S(=O)(O)CC(O)CCl (centres undefined)", "target-or-test-system": "Estrogen receptor (Homo sapiens)", "assay-metric": "activity, negative = inhibition", "data-value": "inactive"}
{"compound": "Nc1nc(Cl)cc(Cl)n1", "target-or-test-system": "Estrogen receptor (Homo sapiens)", "assay-metric": "activity, negative = inhibition", "data-value": "inactive"}
{"compound": "CCCCc1ccc(Cl)cc1", "target-or-test-system": "Estrogen receptor (Homo sapiens)", "assay-metric": "activity, negative = inhibition", "data-value": "inactive"}
{"compound": "CC(=O)Nc1ccc(S(=O)(=O)Nc2cc(C)on2)cc1", "target-or-test-system": "Estrogen receptor (Homo sapiens)", "assay-metric": "activity, negative = inhibition", "data-value": "inactive"}

[Q] Please report the recorded activity, negative = inhibition for COC(=O)N/N=C/c1c[n+]([O-])c2ccccc2[n+]1[O-] .
[A] inactive

[Q] Further, for CC(O)C(CO)C(C)O (centres undefined) ?
[A] inactive

[Q] Further, for CCOC(=O)CC ?
[A] inactive

[Q] Do the same for O=C(O)COc1ccc2ccccc2c1 please
[A] inactive

[Q] Entry to check: C[C@@H]1NC(=O)[C@@H](N)CNC(=O)[C@H](C2CCNC(N)=N2)NC(=O)/C(=C/NC(N)=O)NC(=O)[C@H](CNC(=O)C[C@@H](N)CCCN)NC1=O (some centres undefined)
[A] inactive

[Q] Now the compound COCCCOc1cc(C[C@@H](C[C@H](N)[C@@H](O)C[C@H](C(=O)NCC(C)(C)C(N)=O)C(C)C)C(C)C)ccc1OC
[A] inactive

[Q] Next compound: CN(C)CCc1c[nH]c2ccc(C[C@H]3COC(=O)N3)cc12
[A] inactive

[Q] Try this compound next: CC(=O)Nc1ccc(OCCOCCOc2ccc(NC(C)=O)cc2)cc1
[A] inactive

[Q] Further, for O=C(O)/C=C(\CC(=O)O)C(=O)O ?
[A] inactive

[Q] Subsequent entry: C=CCOC(=O)CCCCCCCC
[A] inactive

[Q] Consider next the compound O=C1c2ccccc2C(=O)N1CO in the same way.
[A] inactive

[Q] Please do the same for O=Cc1ccc(C(=O)O)cc1 as well.
[A] inactive

[Q] Same again, this time with O=C(O)Cc1ccccc1Oc1ccc(Cl)cc1Cl
[A] inactive

[Q] Okay, and CCC(C)c1nccnc1OC (centres undefined) ?
[A] inactive

###

# assay-notes: A CellTox Green Cytotoxicity Assay to monitor cytotoxicity in HEK293 cells - 24 hour (AID 1224875); note: % is set by controls: 0 for no effect and ±100 for the full control effect; nearly all actives have a fitted effect of over 45% in size
# stated-conditions: CellTox Green fluorescence; series mostly up to 76.8 µM
Results filed as inconclusive are left out. Activity calls are given as the source filed them. Calls follow the shape of the dose curve; as a rule, active = well fitted activation curve with a large enough effect in the repeat runs; inconclusive = weak or mixed curves; inactive = flat fitted curve, though single readings scatter.
assay-metric: activity change

{"compound": "O=S(=O)(O)CC(O)CCl (stereo not drawn)", "activity change": "inactive"}
{"compound": "CCC(C)(C)C", "activity change": "inactive"}
{"compound": "CC(C)CC(O)Cc1ccccc1 (stereo not drawn)", "activity change": "inactive"}
{"compound": "CC(=O)SC[C@@H](C)C(=O)N1CCC[C@H]1C(=O)N[C@@H](Cc1ccccc1)C(=O)O", "activity change": "inactive"}
{"compound": "COc1cc2nc(N3CCN(C(=O)C4CCCO4)CC3)nc(N)c2cc1OC (stereo not drawn)", "activity change": "inactive"}

[Q] Which activity change reading was recorded for the compound CC12CCCC=C1C(=O)OC2=O (stereo not drawn) ?
[A] inactive

[Q] # repeat for Cc1cc(C)c(C)c(C)c1
[A] inactive

[Q] Another compound to look at: CC(CC(=O)Cl)CC(C)(C)C (stereo not drawn)
[A] inactive

###

# assay-notes: qHTS assay for identifying genotoxic compounds that show differential cytotoxicity against isogenic chicken DT40 cell lines with known DNA damage response pathways - wild type cell line (AID 743012); note: nearly all actives have a fitted effect of over 60% in size
# stated-conditions: DT40 wild type chicken cells viability, CellTiter-Glo, 40 h; series mostly up to 68.4 µM
Inconclusive results are not listed. Activity calls are given as the source filed them. The call rests on the fitted dose curve; in most records, active means well fitted cell-killing curve with a large enough effect in the repeat runs; inconclusive means weak or mixed curves, or effect the other way; inactive means no such curve, though single readings can be large or run the other way.
In this exercise, the only acceptable responses are active, inactive

{"compound": "COCc1nnc(-c2ccc[n+]([O-])c2)n1-c1c(Cl)c(Cl)cc2[nH]c(=O)c(=O)[nH]c12", "group": "inactive"}
{"compound": "O=c1c(O)c(O)c1=O", "group": "inactive"}
{"compound": "O=C(O)Cc1ccccc1Oc1ccc(Cl)cc1Cl", "group": "inactive"}

[Q] What outcome does the record of this test show for NCC1CCC(C(=O)Oc2ccc(CCC(=O)O)cc2)CC1 (stereo not drawn) ?
[A] inactive

[Q] And OCCC(F)(F)C(F)(F)C(F)(F)C(F)(F)C(F)(F)C(F)(F)F ?
[A] inactive

[Q] How about this compound: CNC(C)=O
[A] inactive

[Q] Can you handle O=C1c2ccccc2C(=O)N1CO next?
[A] inactive

[Q] Same read-out for CC(C)OC(=O)C(C(=O)OC(C)C)=C1SC=CS1 ?
[A] active

[Q] Another compound to check: CC(=O)OCC(=O)[C@@]1(O)CC[C@H]2[C@@H]3CCC4=CC(=O)C=C[C@]4(C)[C@H]3[C@@H](O)C[C@@]21C
[A] inactive

[Q] Try this compound next: C=CCOC(=O)CCCCCCCC
[A] inactive

[Q] Query C=COCCCCO next
[A] inactive

[Q] // query: O=C(O)Cc1c(Cl)ccc(Cl)c1Cl
[A] inactive

[Q] Now this one: CCCCCCCCCCCC(C)=O
[A] inactive

###

# target-or-test-system: Glucocorticoid receptor (Homo sapiens)
# assay-notes: qHTS assay to identify small molecule agonists of the glucocorticoid receptor (GR) signaling pathway (AID 720691); note: % is set by controls: 0 for no effect and ±100 for the full control effect
# stated-conditions: GR-bla HeLa, beta-lactamase reporter ratio, 18 h; series mostly up to 62.4 µM
Inconclusive results are not listed. Activity calls are given as the source filed them. Calls follow the shape of the dose curve; as a rule, active = well fitted activation curve with a large enough effect in the signal ratio in the repeat runs (not every such curve was filed as active); inconclusive = weak or mixed curves, or effect the other way; inactive = no such curve, though single readings can be large or run the other way; the % refers to the signal ratio.
assay-metric: activation

{"compound": "O=S(=O)(O)c1ccc(Cl)cc1", "data-value": "inactive"}
{"compound": "CCCC(C)C(O)CC (stereo not given)", "data-value": "inactive"}
{"compound": "CCCCS", "data-value": "inactive"}
{"compound": "CNC(C)=O", "data-value": "inactive"}
{"compound": "CC(C)=CCC/C(C)=C\\C#N", "data-value": "inactive"}
{"compound": "Nc1nc(Cl)cc(Cl)n1", "data-value": "inactive"}

Note: attention shifts to another entry.
[Q] So what's the measured activation for this one? C=CCCCCCCCCOC(C)=O
[A] inactive

###

# assay-notes: qHTS assay to identify small molecule antagonists of the peroxisome proliferator-activated receptor gamma (PPARg) signaling pathway - cell viability counter screen (AID 743194); note: % is set by controls: 0 for no effect and ±100 for the full control effect; nearly all actives have a fitted effect of over 55% in size
# stated-conditions: PPARg-bla HEK293H viability, CellTiter-Glo luminescence, 17 h, co-treated with 50 nM rosiglitazone; series mostly up to 62.6 µM
Records with an inconclusive call do not appear. Active and inactive are the calls of the source. Calls come from the whole dose curve; as a rule, active = well fitted cell-killing curve with a large enough effect in the repeat runs; inconclusive = weak or mixed curves, or effect the other way; inactive = no such curve, though single readings can be large or run the other way.
assay-metric: activity change, negative = cytotoxicity

{"compound": "Nc1cc(S(=O)(=O)O)ccc1O", "data-value": "inactive"}
{"compound": "Cc1cc(=O)oc2cc(O[C@@H]3SC[C@@H](O)[C@H](O)[C@H]3O)ccc12", "data-value": "inactive"}
{"compound": "CC(C)(C)OC=O", "data-value": "inactive"}
{"compound": "CCOC(=O)c1ccc(N(C)C)cc1", "data-value": "inactive"}
{"compound": "CC(=O)OC1CCC(C(C)(C)C)CC1 (stereo not drawn)", "data-value": "inactive"}

[Q] GET /values?readout=activity change, negative = cytotoxicity&item= CN(C)c1ccncc1
[A] inactive

[Q] Also need O=CN1CCCCC1 , thanks.
[A] inactive

[Q] Same again, this time with CC(=O)OCC(=O)[C@@]1(O)CC[C@H]2[C@@H]3CCC4=CC(=O)C=C[C@]4(C)[C@H]3[C@@H](O)C[C@@]21C
[A] inactive

[Q] Try this compound next: Clc1cc(Cl)c(Cl)c(Cl)c1Cl
[A] inactive

[Q] Here is the next compound: CC(C)(C)c1ccc(C(=O)CCCCl)cc1
[A] inactive

[Q] Another compound to look at: CC/C=C\CCCCCCCCCCOC(C)=O
[A] inactive

[Q] What about this compound? CC1(C)C(=O)C(C)(C)C1=O
[A] inactive

[Q] // query: C/C=C(\C)C(=O)OC/C=C(\C)CCC=C(C)C
[A] inactive
